IC50 for assorted compounds
Target: JNK3 (Homo sapiens)
Experiment: JNK3 kinase DELFIA (phosphorylation of biotinylated GST-ATF2)
Conditions: final ATP 2 uM

CC[C@H](CO)NC(=O)c1c(-c2ccsc2)nc2c(C(=O)N[C@@H](C)c3ccc(S(C)(=O)=O)cc3)cccn12; 118 to 174 nM
CC(C)C[C@@H](CO)NC(=O)c1c(-c2ccsc2)nc2c(C(=O)NCc3ccc4nc(N)sc4c3)cccn12; 9 to 50 nM
CC(C)C[C@@H](CO)NC(=O)c1c(-c2ccsc2)nc2c(C(=O)NCc3ccc(N)nc3)cccn12; 54 to 98 nM

Req: Can you share its IC50? I mean this compound: CCc1nc2c(C(=O)NCc3ccc4nc(C)n(C)c4c3)cccn2c1C(=O)N[C@H](CO)CC(C)C
Resp: 9 to 50 nM

====

Target: JNK1 (Homo sapiens)
Test: JNK1 kinase DELFIA (phosphorylation of biotinylated GST-ATF2)
Type: biochemical
Details: DELFIA, 2 nM JNK1, final ATP 7 uM, 10 min pre-incubation; reported as range for a group
pIC50: −log10 of the molar value.
readout.type: pIC50

CC(C)C[C@@H](CO)NC(=O)c1c(-c2ccsc2)nc2c(C(=O)NCc3ccc(-c4ccccc4)nc3)cccn12; 7.00 to 8.22

Req: State the recorded pIC50 for this entry: CCc1nc2c(C(=O)NCc3cnn(-c4ccc(S(C)(=O)=O)cc4)c3)cccn2c1C(=O)N[C@H](CO)CC(C)C
Resp: 7.00 to 8.22

Req: What does the data say about its pIC50? Entry: Nc1nc2ccc(CNC(=O)c3cccn4c(C(=O)NC5CCCC5CO)c(-c5ccsc5)nc34)cc2s1 (stereo not shown)
Resp: 7.00 to 8.22

Req: Would you kindly share the measured pIC50 for CC(C)C[C@@H](CO)NC(=O)c1c(-c2ccsc2)nc2c(NC(=O)Cc3ccc4c(c3)OCO4)cccn12 ?
Resp: 7.00 to 8.22

Req: Reported pIC50, compound Nc1nc2ccc(CNC(=O)c3cccn4c(C(=O)N[C@@H](CO)CC5CC5)c(-c5ccsc5)nc34)cc2s1 : ____
Resp: 7.00 to 8.22

Req: Requested read-out: pIC50. Entry: CCc1nc2c(C(=O)NCc3ccc4[nH]ncc4c3)cccn2c1C(=O)N[C@H](CO)CC(C)C
Resp: 7.00 to 8.22

Req: Please report the recorded pIC50 for CS(=O)(=O)c1ccc(CNC(=O)c2cccn3c(C(=O)N[C@H](CO)c4ccccc4)c(-c4ccsc4)nc23)cc1 .
Resp: 7.00 to 8.22

====

Molecular target: JNK1 (Homo sapiens, UniProt P45983)
Sequence (P45983 whole entry, species assumed): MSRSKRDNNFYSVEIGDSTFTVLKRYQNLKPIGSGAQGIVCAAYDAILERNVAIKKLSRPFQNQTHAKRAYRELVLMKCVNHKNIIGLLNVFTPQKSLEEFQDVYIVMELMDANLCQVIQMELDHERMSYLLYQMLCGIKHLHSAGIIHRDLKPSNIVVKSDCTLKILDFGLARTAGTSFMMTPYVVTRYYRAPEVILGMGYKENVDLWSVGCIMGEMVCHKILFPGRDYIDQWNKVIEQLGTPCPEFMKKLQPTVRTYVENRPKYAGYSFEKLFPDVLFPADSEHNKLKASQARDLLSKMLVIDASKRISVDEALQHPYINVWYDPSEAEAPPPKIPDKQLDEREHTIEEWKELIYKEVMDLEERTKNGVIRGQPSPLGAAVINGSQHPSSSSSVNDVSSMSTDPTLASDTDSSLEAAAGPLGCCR
Experiment: JNK1 kinase DELFIA (phosphorylation of biotinylated GST-ATF2)
Assay type: biochemical
Conditions: read-out: JNK 1 IC50
readout.type: IC50 (nM)

Previously resolved entries follow.
Cc1nc2cc(CNC(=O)c3cccn4c(C(=O)N[C@H](CO)CC(C)C)c(-c5ccsc5)nc34)ccc2[nH]1; 8
CC(C)C[C@@H](CO)NC(=O)c1c(-c2cc(F)cc(F)c2)nc2c(C(=O)NCc3ccc4nc(N)sc4c3)cccn12; 23

(a) Nc1nc2ccc(CNC(=O)c3cccn4c(C(=O)N[C@H](CO)c5ccccc5)c(-c5ccsc5)nc34)cc2s1
(b) CC(C)C[C@@H](CO)NC(=O)c1c(-c2ccccn2)nc2c(C(=O)NCc3ccc4nc(N)sc4c3)cccn12
Req: Pick one: a or b . Which one has the lower reported IC50? Answer with the label corresponding to your selection.
Resp: b

====

Target: JNK2 (Homo sapiens, UniProt P45984)
Sequence (P45984 whole entry, species assumed): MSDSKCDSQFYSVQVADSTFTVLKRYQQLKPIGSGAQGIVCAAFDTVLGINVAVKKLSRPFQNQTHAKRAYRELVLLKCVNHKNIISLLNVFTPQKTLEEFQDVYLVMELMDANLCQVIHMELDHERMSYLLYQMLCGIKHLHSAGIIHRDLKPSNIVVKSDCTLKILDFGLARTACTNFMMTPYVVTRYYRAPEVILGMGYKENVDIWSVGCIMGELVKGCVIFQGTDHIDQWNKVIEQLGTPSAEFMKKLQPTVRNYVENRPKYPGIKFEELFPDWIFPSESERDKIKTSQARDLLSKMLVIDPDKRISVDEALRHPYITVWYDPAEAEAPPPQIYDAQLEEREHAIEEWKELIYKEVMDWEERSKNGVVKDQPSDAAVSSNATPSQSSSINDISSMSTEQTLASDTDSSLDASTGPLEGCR
Test: JNK2 kinase DELFIA (phosphorylation of biotinylated GST-ATF2)
Details: final ATP 4 uM, reported as range for a group
Description: Before initiation of kinase reactions, compounds were pre-incubated with the enzyme for 10 minutes. […] The amount of phosphate transferred to biotinylated GST-ATF2 was measured using the Dissociation Enhanced Lanthanide Fluorescence Immuno-assay (DELFIA) from Perkin Elmer according to manufacturers protocol. […]
pIC50: −log10 of the molar value.
Measured pIC50 values are reported for all entries that follow.

Here's what some known entries look like.
CC[C@@H](CO)NC(=O)c1c(-c2ccsc2)nc2c(C(=O)NCc3ccc(Cl)nc3)cccn12; 6.18 to 6.70
CC(C)C[C@@H](CO)NC(=O)c1c(-c2ccsc2)nc2c(C(=O)NCc3ccc4nc[nH]c4c3)cccn12; 7.03 to 7.28

Req: Find the recorded pIC50 belonging to CC(C)C[C@@H](CO)NC(=O)c1c(-c2ccsc2)nc2c(C(=O)NCc3ccc(N4CCCC4=O)cc3)cccn12 and report it.
Resp: 7.03 to 7.28

====

Target: JNK3 (Homo sapiens)
Test: JNK3 kinase DELFIA (phosphorylation of biotinylated GST-ATF2)
Details: final ATP 2 uM
Quick reference for IC50 among some compounds

CC(C)C[C@@H](CO)NC(=O)c1c(-c2ccsc2)nc2c(C(=O)NCc3ccc(-c4ccncc4)nc3)cccn12 [Compound 307]; 9 to 50 nM
Cc1ccn(-c2ccc(CNC(=O)c3cccn4c(C(=O)N[C@H](CO)CC(C)C)c(-c5ccsc5)nc34)cn2)n1 [Compound 323]; 9 to 50 nM
CC(C)C[C@H](CO)NC(=O)c1c(-c2ccsc2)nc2c(C(=O)NCc3ccc(N4CCCC4)nc3)cccn12 [Compound 291]; 54 to 98 nM
C[C@H](CO)NC(=O)c1c(-c2ccsc2)nc2c(C(=O)NCc3ccc4nc(N)sc4c3)cccn12 [Compound 23]; 118 to 174 nM
CC(C)C[C@@H](CO)NC(=O)c1c(-c2ccsc2)nc2c(C(=O)NCc3ccc(N4CCCCC4)nc3)cccn12 [Compound 301]; 9 to 50 nM

Req: I am curious: what IC50 value has been reported for Cc1nc2ccc(CNC(=O)c3cccn4c(C(=O)N[C@H](CO)CC(C)C)c(-c5ccccn5)nc34)cc2[nH]1 [Compound 479] ?
Resp: 9 to 50 nM

Req: Name the reported IC50 value associated with the compound CC(C)C[C@@H](CO)NC(=O)c1c(-c2ccsc2)nc2c(C(=O)NCc3ccc4nc(C(C)C)[nH]c4c3)cccn12 [Compound 114]
Resp: 9 to 50 nM

====

Molecular target: UniProt:P53779
Assay: JNK3 kinase DELFIA (phosphorylation of biotinylated GST-ATF2)
Conditions: final ATP 2 uM
Protocol: Before initiation of kinase reactions, compounds were pre-incubated with the enzyme for 10 minutes. […] The amount of phosphate transferred to biotinylated GST-ATF2 was measured using the Dissociation Enhanced Lanthanide Fluorescence Immuno-assay (DELFIA) from Perkin Elmer according to manufacturers protocol. […]
readout.type: IC50

Example entries and their recorded answers appear below.
Nc1nc2ccc(CNC(=O)c3cccn4c(C(=O)NC[C@H]5CCCCC[C@H]5O)c(-c5ccsc5)nc34)cc2s1 [Compound 48]; 209 to 479 nM
Cc1cccc(-n2cc(CNC(=O)c3cccn4c(C(=O)N[C@H](CO)CC(C)C)c(-c5ccsc5)nc34)cn2)c1 [Compound 218]; 9 to 50 nM

With those in mind, consider the next molecule.
Req: Name the recorded IC50 for CC(C)C[C@@H](CO)NC(=O)c1c(-c2ccsc2)nc2c(C(=O)NCc3ccc4ncccc4c3)cccn12 [Compound 115] .
Resp: 9 to 50 nM

====

Biological target: JNK3 (Homo sapiens, UniProt P53779)
Sequence (P53779 whole entry, species assumed): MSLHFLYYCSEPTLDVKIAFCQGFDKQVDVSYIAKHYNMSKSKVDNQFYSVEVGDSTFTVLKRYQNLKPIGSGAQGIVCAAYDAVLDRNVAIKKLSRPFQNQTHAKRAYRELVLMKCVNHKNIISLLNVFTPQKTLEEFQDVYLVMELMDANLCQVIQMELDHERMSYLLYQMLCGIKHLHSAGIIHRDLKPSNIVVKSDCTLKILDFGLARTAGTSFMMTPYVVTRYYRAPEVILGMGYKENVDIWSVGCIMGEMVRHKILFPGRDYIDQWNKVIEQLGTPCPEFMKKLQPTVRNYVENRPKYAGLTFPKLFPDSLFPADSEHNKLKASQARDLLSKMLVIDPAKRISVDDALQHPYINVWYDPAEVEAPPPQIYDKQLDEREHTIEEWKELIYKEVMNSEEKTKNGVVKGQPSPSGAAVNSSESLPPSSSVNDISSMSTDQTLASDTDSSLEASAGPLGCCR
Test: JNK3 kinase DELFIA (phosphorylation of biotinylated GST-ATF2)
Type: biochemical
Conditions: final ATP 2 uM
readout.type: IC50

Use the examples below as a reference point.
CC(C)C[C@H](CO)NC(=O)c1c(-c2ccsc2)nc2c(C(=O)NCc3ccc(S(C)(=O)=O)cc3)cccn12; 54 to 98 nM
CC(C)C[C@@H](CO)NC(=O)c1c(-c2ccsc2)nc2c(C(=O)NCc3ccc4ncsc4c3)cccn12; 54 to 98 nM
CC(C)C[C@@H](CO)NC(=O)c1c(-c2ccsc2)nc2c(C(=O)NCc3ccc4nc[nH]c4c3)cccn12; 54 to 98 nM
Nc1nc2ccc(CNC(=O)c3cccn4c(C(=O)N[C@H](CO)c5ccccc5)c(-c5ccsc5)nc34)cc2s1; 9 to 50 nM
CC(C)C[C@@H](CO)NC(=O)c1c(-c2ccsc2)nc2c(C(=O)NCc3ccc(-c4ccccn4)s3)cccn12; 9 to 50 nM
CC(C)CNC(=O)c1c(-c2ccsc2)nc2c(C(=O)NCc3ccc4nc(N)sc4c3)cccn12; 54 to 98 nM
CC[C@@H](CO)NC(=O)c1c(-c2ccsc2)nc2c(C(=O)NCc3ccc(-n4nccc4C(C)C)cc3)cccn12; 209 to 479 nM
CS(=O)(=O)c1ccc(CNC(=O)c2cccn3c(C(=O)N[C@H](CO)c4ccccc4)c(-c4ccsc4)nc23)cc1; 54 to 98 nM

Req: Request the reported IC50 associated with CC(C)C[C@@H](CO)NC(=O)c1c(-c2ccccc2)nc2c(C(=O)NCc3ccc4nc(N)sc4c3)cccn12
Resp: 9 to 50 nM

Req: So what does the record say about IC50 for C[C@@H](NC(=O)c1c(-c2ccsc2)nc2c(C(=O)NCc3ccc4nc(N)sc4c3)cccn12)c1ccccc1 ?
Resp: 118 to 174 nM

Req: What value of IC50 has been reported for the following compound? Cc1ccc(-n2cc(CNC(=O)c3cccn4c(C(=O)N[C@H](CO)CC(C)C)c(-c5ccsc5)nc34)cn2)cc1
Resp: 9 to 50 nM

Req: If you can, please state the reported IC50 value of Cc1nc2cc(CNC(=O)c3cccn4c(C(=O)N[C@H](CO)CC(C)C)c(-c5ccsc5)nc34)ccc2[nH]1 .
Resp: 9 to 50 nM

Req: So what's the measured IC50 for this one? CC(C)C[C@@H](CO)NC(=O)c1c(-c2ccsc2)nc2c(C(=O)NCc3ccc(-c4cccnc4)nc3)cccn12
Resp: 9 to 50 nM

Req: I am curious: what IC50 value has been reported for CC(C)C[C@@H](CO)NC(=O)c1c(-c2ccsc2)nc2c(C(=O)NCc3ccc(N4CCOCC4)nc3)cccn12 ?
Resp: 9 to 50 nM

Req: Form field: reported IC50 of Nc1nc2ccc(CNC(=O)c3cccn4c(C(=O)N[C@H]5CC[C@H](O)CC5)c(-c5ccsc5)nc34)cc2s1
Resp: 118 to 174 nM
